Molecular target: HRV3C (Human rhinovirus 14, UniProt P03303)
Assay: HRV3C protease assay (duplex, SAMDI-MS)
Format: biochemical, HRV
Settings: HRV3C, 30 mins preincubation, class symbols; read-out: HRV IC50
# maps each entry to its IC50

compound: CC1(C)C[C@@H](C(=O)NC(C[C@@H]2CCNC2=O)C(=O)C(=O)NCc2ccccc2)N(C(=O)c2cc3ccccc3[nH]2)C1 (stereo partly drawn)
result: 2000 to 20000 nM

compound: COc1cccc2[nH]c(C(=O)N3C[C@H](C(F)(F)F)C[C@H]3C(=O)N[C@@H](C[C@@H]3CCCNC3=O)C(=O)COCc3ccccc3)cc12 [Compound 45A]
result: 2000 to 20000 nM

compound: COc1cccc2[nH]c(C(=O)N3C[C@@H]4CCC[C@@H]4[C@H]3C(=O)N[C@H](CN3CCCC3=O)C(=O)C(=O)NC3CC3)cc12 (single isomer, unassigned) [Compound 113B]
result: 2000 to 20000 nM

compound: COc1cc(F)c(F)c2[nH]c(C(=O)N3C[C@@H]4CCC[C@@H]4[C@H]3C(=O)N[C@@H](C[C@@H]3CCNC3=O)C(=O)CO)cc12
result: 2000 to 20000 nM

compound: COc1cccc2[nH]c(C(=O)N3C[C@@H]4CCC[C@@H]4[C@H]3C(=O)N[C@@H](C[C@@H]3CCNC3=O)C(=O)CO)cc12
result: 2000 to 20000 nM

Could you now look at the following compound, please?
**Q:** Dear colleague, I am looking for the recorded IC50 of the following compound: `COc1cccc2[nH]c(C(=O)N3C[C@@H]4CCC[C@@H]4[C@H]3C(=O)N[C@@H](C[C@@H]3CCNC3=O)C(=O)C(=O)NCCOCc3ccccc3)cc12`
**A:** 200 to 2000 nM

* * *

Listed compounds paired with reported pIC50
Target: 3CLpro (Severe acute respiratory syndrome coronavirus 2, UniProt P0DTD1)
Assay: SARS-CoV-2 3CLpro protease assay (duplex, SAMDI-MS)
Type: biochemical
Parameters: For the duplex assay, 3CLpro and HRV3C was added
Details: 3CLpro, 30 mins preincubation, class symbols; read-out: SARS-Cov-2 IC50
pIC50: −log10 of the molar value.

// below: answered compounds
compound: O=C(NC1CC1)C(=O)[C@H](C[C@@H]1CCNC1=O)NC(=O)[C@@H]1CC2(CCN1C(=O)c1cc3cc(F)ccc3[nH]1)CC2
experimentalSystem: 3CLpro (Severe acute respiratory syndrome coronavirus 2, UniProt P0DTD1)
pIC50: > 7.70
//
compound: COc1cccc2[nH]c(C(=O)N3C[C@@H]4CCC[C@@H]4[C@H]3C(=O)N[C@@H](C[C@@H]3CCNC3=O)C(=O)C(=O)NCC(F)(F)F)cc12
experimentalSystem: 3CLpro (Severe acute respiratory syndrome coronavirus 2, UniProt P0DTD1)
pIC50: 5.70 to 6.70
//
compound: O=C(NCc1ccccc1)C(=O)C(C[C@@H]1CCCNC1=O)NC(=O)[C@@H]1[C@H]2CCC[C@H]2CN1C(=O)c1cc2ccccc2[nH]1 (stereo partly drawn)
experimentalSystem: 3CLpro (Severe acute respiratory syndrome coronavirus 2, UniProt P0DTD1)
pIC50: 6.70 to 7.70

**Q:** Data request, read-out pIC50, for `CC(C)COCCNC(=O)C(=O)[C@H](C[C@@H]1CCNC1=O)NC(=O)[C@@H]1[C@H]2CCC[C@H]2CN1C(=O)c1cc2c(Cl)cc(Cl)cc2[nH]1`
**A:** 6.70 to 7.70

**Q:** Bench note: what pIC50 did `O=C1NCC[C@H]1C[C@H](NC(=O)[C@@H]1[C@@H]2[C@H](CN1C(=O)c1cc3c(Cl)cc(Cl)cc3[nH]1)[C@@H]1C=C[C@H]2C1)C(=O)CO` show?
**A:** > 7.70

**Q:** Name the reported pIC50 value associated with the compound `COc1cccc2[nH]c(C(=O)N3C[C@H]4CCCC[C@H]4[C@@H]3C(=O)N[C@@H](C[C@@H]3CCCNC3=O)C(=O)CO)cc12`
**A:** 5.70 to 6.70

* * *

System: SARS-CoV-2-GHB-03021/2020
Assay: microbe, parasite or virus in culture
Assay type: cell-based
Settings: Severe acute respiratory syndrome coronavirus 2, Vero C1008, 96 h; read-out: VeroE6 + CP (EC50)
measuredMetric: EC50

compound: O=C1NCC[C@H]1C[C@H](NC(=O)[C@@H]1[C@H]2CCC[C@H]2CN1C(=O)c1cc2ncccc2[nH]1)C(=O)CO [Compound 78]
result: 10 to 100 µM
//
compound: CC(=O)c1c[nH]c(C(=O)N2C[C@@H]3CCC[C@@H]3[C@H]2C(=O)N[C@@H](C[C@@H]2CCNC2=O)C(=O)CO)c1 [Compound 86]
result: 10 to 100 µM

Switching to the query record.
**Q:** # lookup: EC50 of COc1cccc2[nH]c(C(=O)N3C[C@@H]4CCC[C@@H]4[C@H]3C(=O)N[C@H](CN3CCCC3=O)C(=O)C(=O)NC3CC3)cc12 (single isomer, unassigned) [Compound 113B]
**A:** 10 to 100 µM

* * *

Target: UniProt P0DTD1
Test: SARS-CoV-2 3CLpro protease assay (duplex, SAMDI-MS)
Assay type: biochemical
Set-up: For the duplex assay, 3CLpro and HRV3C was added
Details: 3CLpro, 30 mins preincubation, class symbols; read-out: SARS-Cov-2 IC50
pIC50: −log10 of the molar value.
The following molecules are shown together with reported pIC50 values.

Known pIC50 results, listed for orientation:
molecule: O=C1NCC[C@H]1C[C@H](NC(=O)[C@@H]1[C@H]2CCC[C@H]2CN1C(=O)c1cc2c(Cl)cc(Cl)c(F)c2[nH]1)C(=O)CO
pIC50: > 7.70
--
molecule: O=C1NCCC[C@H]1C[C@H](NC(=O)[C@@H]1[C@H]2CCC[C@H]2CN1C(=O)c1cc2ccccc2[nH]1)C(O)S(=O)(=O)O (stereo partly drawn)
pIC50: > 7.70
--
molecule: O=C(NC1CC1)C(=O)[C@H](C[C@@H]1CCNC1=O)NC(=O)[C@@H]1CC2(CCN1C(=O)c1cc3ccccc3o1)CC2
pIC50: 6.70 to 7.70

**Q:** Fill blank: measured pIC50 of the molecule COc1cccc2[nH]c(C(=O)N3C[C@]4(C[C@H]3C(=O)NC(C[C@@H]3CCCNC3=O)C(=O)C(N)=O)CC4(F)F)cc12 (stereo partly drawn) is ____.
**A:** 6.70 to 7.70

**Q:** Given COc1cccc2[nH]c(C(=O)N3C[C@H]4CCCC[C@H]4[C@@H]3C(=O)N[C@@H](C[C@@H]3CCCNC3=O)C(=O)COCc3ccccc3)cc12 (single isomer, unassigned) , state its recorded pIC50.
**A:** 5.70 to 6.70

**Q:** Item `O=C(NCCCC(F)(F)F)C(=O)[C@H](C[C@@H]1CCNC1=O)NC(=O)[C@@H]1[C@H]2CCC[C@H]2CN1C(=O)c1cc2c(Cl)cc(Cl)cc2[nH]1` has what recorded pIC50?
**A:** 5.70 to 6.70

* * *

Biological target: human cathepsin L (Homo sapiens, UniProt P07711)
Construct: purchased R&D Systems
Test: cathepsin L assay
Type: biochemical
Conditions: 10 pM human cathepsin L, Z-FR-AMC 2 μM, class symbols
# IC50 values compiled below

Here is how some molecules turned out for IC50.
structureSmiles: CC(C)CCCNC(=O)C(=O)[C@H](C[C@@H]1CCNC1=O)NC(=O)[C@@H]1[C@H]2CCC[C@H]2CN1C(=O)c1cc2c(Cl)cc(Cl)cc2[nH]1
measuredMetric: IC50
result: 1 to 10 µM
--
structureSmiles: O=C1NCC[C@H]1C[C@H](NC(=O)[C@@H]1[C@H]2CCC[C@H]2CN1C(=O)c1cc2c(Cl)cc(F)cc2[nH]1)C(=O)CO
measuredMetric: IC50
result: ≥ 10 µM
--
structureSmiles: O=C1NCC[C@H]1C[C@H](NC(=O)[C@@H]1[C@H]2CCC[C@H]2CN1C(=O)c1cc2c(Cl)cc(-c3ccccc3)cc2[nH]1)C(=O)CO
measuredMetric: IC50
result: ≥ 10 µM

Switching to the query record.
**Q:** Return reported IC50; argument: `COc1cccc2[nH]c(C(=O)N3Cc4ccccc4[C@H]3C(=O)N[C@@H](C[C@@H]3CCCNC3=O)C(=O)CO)cc12`
**A:** ≥ 10 µM

* * *

A collection of compounds and their measured EC50
Tested on: SARS-CoV-2-GHB-03021/2020
Assay: microbe, parasite or virus in culture
Format: cell-based
Conditions: Severe acute respiratory syndrome coronavirus 2, Vero C1008, 96 h; read-out: VeroE6 + CP (EC50)

These solved cases illustrate the format of a correct answer.
compound: O=C(NCc1ccccc1)C(=O)C(C[C@@H]1CCNC1=O)NC(=O)[C@@H]1CCCCN1C(=O)c1cc2ccccc2[nH]1 (stereo partly drawn) [Compound 1]
EC50: > 100 µM
//
compound: O=C[C@H](C[C@@H]1CCCNC1=O)NC(=O)[C@@H]1[C@H]2CCC[C@H]2CN1C(=O)c1cc2ccccc2[nH]1 [Compound 15]
EC50: 1 to 10 µM
//
compound: CC1(C)[C@@H]2[C@@H](C(=O)NC(C[C@@H]3CCNC3=O)C(=O)C(=O)NCc3ccccc3)N(C(=O)c3cc4ccccc4[nH]3)C[C@@H]21 (stereo partly drawn) [Compound 4]
EC50: 1 to 10 µM
//
compound: COc1cccc2[nH]c(C(=O)N3C[C@@H]4CCC[C@@H]4[C@H]3C(=O)N[C@@H](C[C@@H]3CCNC3=O)C(=O)C(=O)N[C@@H]3CCOC3)cc12 [Compound 105]
EC50: 10 to 100 µM
//
compound: CC(C)OCCNC(=O)C(=O)[C@H](C[C@@H]1CCNC1=O)NC(=O)[C@@H]1[C@H]2CCC[C@H]2CN1C(=O)c1cc2c(Cl)cc(Cl)cc2[nH]1 [Compound 173]
EC50: < 1 µM

**Q:** Look at this compound and give its reported EC50. O=C1NCC[C@H]1C[C@H](NC(=O)[C@@H]1[C@H]2CCC[C@H]2CN1C(=O)c1cc2c3c(ccc2[nH]1)CCO3)C(=O)CO [Compound 108]
**A:** 1 to 10 µM

**Q:** May I ask what EC50 has been recorded for CS(=O)(=O)Oc1cccc2[nH]c(C(=O)N3C[C@@H]4CCC[C@@H]4[C@H]3C(=O)N[C@@H](C[C@@H]3CCNC3=O)C(=O)CO)cc12 [Compound 155] ?
**A:** 10 to 100 µM

**Q:** What EC50 value was documented for this compound, COc1ccc(Cl)c2[nH]c(C(=O)N3C[C@@H]4CCC[C@@H]4[C@H]3C(=O)N[C@@H](C[C@@H]3CCNC3=O)C(=O)CO)cc12 [Compound 89] ?
**A:** < 1 µM

**Q:** # EC50 lookup, item COc1cccc2[nH]c(C(=O)N3C[C@@H]4CCC[C@@H]4[C@H]3C(=O)NC(C[C@@H]3CCNC3=O)C(=O)C(=O)NCc3ccccc3)cc12 (stereo partly drawn) [Compound 16]
**A:** 1 to 10 µM

**Q:** For the compound COc1ccc2[nH]c(C(=O)N3C[C@@H]4CCC[C@@H]4[C@H]3C(=O)N[C@@H](C[C@@H]3CCNC3=O)C(=O)CO)cc2c1OC [Compound 81] , what EC50 is on record?
**A:** 1 to 10 µM

**Q:** What does the data say about its EC50? Entry: O=C1NCC[C@H]1C[C@H](NC(=O)[C@@H]1[C@H]2CCC[C@H]2CN1C(=O)c1cc2c(Cl)cc(OCc3ccccc3)cc2[nH]1)C(=O)CO [Compound 130]
**A:** < 1 µM

**Q:** // lookup EC50 for O=C1NCC[C@H]1C[C@H](NC(=O)[C@@H]1[C@H]2CCC[C@H]2CN1C(=O)c1cc2ccsc2[nH]1)C(=O)CO [Compound 80]
**A:** 1 to 10 µM

Each recorded value in this set is attributed to patent US11952365B2.
